target.of.assay: H^+ /K^+ ATPase (proton pump), gastric vesicles (Sus scrofa)
Construct: Gastric vesicles were prepared from pig stomach; from tissue; host or cells: pig stomach, lyophilized gastric vesicles
Sequence (P19156 2-1034 limits assumed): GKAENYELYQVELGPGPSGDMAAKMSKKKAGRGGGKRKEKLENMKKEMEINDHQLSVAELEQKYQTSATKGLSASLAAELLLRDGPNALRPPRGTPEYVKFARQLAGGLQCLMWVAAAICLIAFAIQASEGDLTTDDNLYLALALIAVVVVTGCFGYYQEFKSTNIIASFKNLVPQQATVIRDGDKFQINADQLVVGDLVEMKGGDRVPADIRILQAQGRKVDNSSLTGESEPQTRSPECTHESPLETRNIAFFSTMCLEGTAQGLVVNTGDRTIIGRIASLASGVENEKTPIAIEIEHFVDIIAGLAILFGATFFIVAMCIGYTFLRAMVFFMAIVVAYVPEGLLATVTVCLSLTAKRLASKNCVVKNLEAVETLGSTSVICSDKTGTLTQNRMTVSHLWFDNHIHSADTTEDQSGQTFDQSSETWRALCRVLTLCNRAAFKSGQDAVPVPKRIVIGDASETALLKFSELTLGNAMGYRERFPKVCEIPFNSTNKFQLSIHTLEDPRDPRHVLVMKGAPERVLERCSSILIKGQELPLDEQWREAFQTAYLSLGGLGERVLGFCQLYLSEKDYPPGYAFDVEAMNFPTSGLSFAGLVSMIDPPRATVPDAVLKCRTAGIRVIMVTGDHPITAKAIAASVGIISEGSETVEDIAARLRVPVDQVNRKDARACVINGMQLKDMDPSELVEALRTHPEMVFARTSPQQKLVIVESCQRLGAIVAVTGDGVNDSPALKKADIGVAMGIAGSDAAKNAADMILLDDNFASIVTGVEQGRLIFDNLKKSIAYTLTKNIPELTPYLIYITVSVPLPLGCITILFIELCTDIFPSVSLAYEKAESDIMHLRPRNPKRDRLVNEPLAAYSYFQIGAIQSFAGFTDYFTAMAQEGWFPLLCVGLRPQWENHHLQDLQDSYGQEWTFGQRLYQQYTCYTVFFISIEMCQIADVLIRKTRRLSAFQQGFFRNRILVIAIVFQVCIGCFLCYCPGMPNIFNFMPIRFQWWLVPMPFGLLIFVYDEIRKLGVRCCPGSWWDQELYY
Sequence (P18434 whole entry partner): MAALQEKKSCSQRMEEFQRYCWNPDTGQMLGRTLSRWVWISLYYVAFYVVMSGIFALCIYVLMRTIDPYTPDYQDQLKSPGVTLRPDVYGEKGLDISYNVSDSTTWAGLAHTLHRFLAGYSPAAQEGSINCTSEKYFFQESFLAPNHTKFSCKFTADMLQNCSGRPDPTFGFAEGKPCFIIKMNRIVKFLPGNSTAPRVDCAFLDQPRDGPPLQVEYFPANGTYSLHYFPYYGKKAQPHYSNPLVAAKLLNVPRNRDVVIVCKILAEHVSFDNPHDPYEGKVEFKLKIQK
test.description: Determination of H+/K+ ATPase activity, Lineweaver-Burk kinetics versus K+ (Experiment 4-2)
Format: biochemical, pig
test.conditions: Lineweaver-Burk, versus K+, pH 7.0
Listed below: pKi values for each entry.
To interpret pKi, take it as minus log10 of a concentration measured in moles per litre.

[Q] Observed pKi on H^+ /K^+ ATPase (proton pump), gastric vesicles (Sus scrofa) for COc1cccc2c(N3CCc4ccccc4C3C)nc(Nc3ccc(F)cc3C)nc12.Cl (centres unmarked) [Example 34, Hydrochloride] , please.
[A] 7.40

[Q] Observed pKi on H^+ /K^+ ATPase (proton pump), gastric vesicles (Sus scrofa) for CCCC(=O)c1cnc2c(OC)cccc2c1Nc1ccccc1C [SK&F96067] , please.
[A] 6.15
